Overview of reported pIC50 across a group of compounds:
system: HCT-116; experiment: Antiproliferative activity against human HCT116 cells incubated for 72 hrs by CCK8 assay; settings: HCT-116, 72 h
pIC50 here is simply -log10 of the concentration when that concentration is written in mol/L.

Solved cases below.
Input line: Return reported pIC50; argument: Cc1ccc(-n2nc3c(=O)n(CCCC(=O)NCCOCCOCCNc4cccc5c4C(=O)N(C4CCC(=O)NC4=O)C5=O)nc(C)c3c2C)cc1 (stereo unspecified)
Output line: 4.60

Input line: Return reported pIC50; argument: Cc1ccc(-n2nc3c(=O)n(CCCC(=O)NCCCNc4cccc5c4C(=O)N(C4CCC(=O)NC4=O)C5=O)nc(C)c3c2C)cc1 (stereo unspecified)
Output line: 4.17

Input line: Return reported pIC50; argument: Cc1ccc(-n2nc3c(=O)n(CCCC(=O)NCCCCCCNc4cccc5c4C(=O)N(C4CCC(=O)NC4=O)C5=O)nc(C)c3c2C)cc1 (stereo unspecified)
Output line: 4.72

***
Input line: Return reported pIC50; argument: Cc1ccc(-n2nc3c(=O)n(CCCC(=O)NCCCCCCCNc4cccc5c4C(=O)N(C4CCC(=O)NC4=O)C5=O)nc(C)c3c2C)cc1 (stereo unspecified)
Output line: 4.70

Input line: Return reported pIC50; argument: Cc1ccc(-n2nc3c(=O)n(CCCC(=O)NCC(C)c4ccccc4)nc(C)c3c2C)cc1 (stereo unspecified)
Output line: 4.13

Input line: Return reported pIC50; argument: Cc1ccc(-n2nc3c(=O)n(CCCC(=O)NCCCCCCCCNc4cccc5c4C(=O)N(C4CCC(=O)NC4=O)C5=O)nc(C)c3c2C)cc1 (stereo unspecified)
Output line: 5.10
